Sourced from patent US6329389A

Assay target: rat somatostatin receptor protein subtype 4 (rSSTR4) (Rattus norvegicus)
Sequence (P30937 whole entry): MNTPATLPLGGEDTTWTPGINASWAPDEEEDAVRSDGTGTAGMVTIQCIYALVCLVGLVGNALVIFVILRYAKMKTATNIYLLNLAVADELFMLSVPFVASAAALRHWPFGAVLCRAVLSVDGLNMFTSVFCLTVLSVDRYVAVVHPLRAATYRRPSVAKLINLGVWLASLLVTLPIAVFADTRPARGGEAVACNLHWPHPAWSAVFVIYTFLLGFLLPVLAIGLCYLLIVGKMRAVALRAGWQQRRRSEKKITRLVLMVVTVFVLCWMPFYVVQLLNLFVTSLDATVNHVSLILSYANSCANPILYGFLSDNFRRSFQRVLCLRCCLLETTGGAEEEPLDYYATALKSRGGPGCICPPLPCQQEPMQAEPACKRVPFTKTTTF
Assay explanation: Binding inhibition of 125I-somatostatin-14, IC50, rat SSTR4 membrane fraction
Conditions used: 125I-somatostatin-14, rat SSTR4 CHO cell membrane fraction, 25° C., 60 minutes
pIC50: −log10 of the molar value.
Measurement label: pIC50

molecule="O=C(CCc1nc(-c2cc3ccccc3o2)no1)N1CC(CN2CCCC2)Cc2ccccc21 (stereo not shown) [Example 56]" assay_target="rat somatostatin receptor protein subtype 4 (rSSTR4) (Rattus norvegicus)" measurement_label=pIC50 observed=8.00

###

Assay target: human somatostatin receptor protein subtype 2 (SSTR2) (Homo sapiens, UniProt P30874)
Sequence (P30874 whole entry): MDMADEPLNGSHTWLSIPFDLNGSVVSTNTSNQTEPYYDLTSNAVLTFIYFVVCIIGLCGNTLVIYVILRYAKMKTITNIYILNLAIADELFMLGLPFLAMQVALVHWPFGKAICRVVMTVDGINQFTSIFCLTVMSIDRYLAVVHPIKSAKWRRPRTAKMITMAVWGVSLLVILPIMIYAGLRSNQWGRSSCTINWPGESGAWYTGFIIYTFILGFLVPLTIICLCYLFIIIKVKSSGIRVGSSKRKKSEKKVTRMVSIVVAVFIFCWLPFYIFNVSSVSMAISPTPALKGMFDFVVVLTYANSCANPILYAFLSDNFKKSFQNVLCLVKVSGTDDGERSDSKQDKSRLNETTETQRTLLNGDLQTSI
Assay explanation: Binding inhibition of 125I-somatostatin-14, IC50, SSTR2 membrane fraction
Conditions used: 125I-somatostatin-14, CHO cell membrane fraction, 25° C., 60 minutes
Measurement label: IC50 (nM)

compound="CN(C)CC1Cc2ccccc2N(C(=O)[C@@H](Cc2c[nH]c3ccccc23)NC(=O)N2CCC(n3c(=O)[nH]c4ccccc43)CC2)C1 (some centres unmarked) [Example 89]" assay_target="human somatostatin receptor protein subtype 2 (SSTR2) (Homo sapiens, UniProt P30874)" observed=3
compound="CN(C)CC1Cc2ccccc2N(C(=O)[C@@H](Cc2c[nH]c3ccccc23)NC(=O)N2CCN(c3ccccc3)CC2)C1 (some centres unmarked) [Example 88]" assay_target="human somatostatin receptor protein subtype 2 (SSTR2) (Homo sapiens, UniProt P30874)" observed=9
